- Study Target: human ROR2 (human, UniProt Q01974 34-403, limits assumed)
- Sequence (Q01974 34-403 limits assumed): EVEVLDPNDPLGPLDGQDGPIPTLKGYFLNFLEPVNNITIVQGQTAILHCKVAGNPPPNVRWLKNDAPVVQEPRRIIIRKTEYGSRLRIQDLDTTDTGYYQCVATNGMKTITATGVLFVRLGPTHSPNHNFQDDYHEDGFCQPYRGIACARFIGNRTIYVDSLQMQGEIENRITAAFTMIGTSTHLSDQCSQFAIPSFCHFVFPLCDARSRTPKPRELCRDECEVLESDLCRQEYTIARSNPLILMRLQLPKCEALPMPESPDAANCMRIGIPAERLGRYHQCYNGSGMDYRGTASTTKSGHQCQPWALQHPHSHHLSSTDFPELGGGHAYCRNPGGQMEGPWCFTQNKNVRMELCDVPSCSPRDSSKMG
- Procedure Text: SPR
Observable: pKd
Remember, pKd is on a log scale: it is -log10 of the molar concentration.

The measured pKd associated with grafted humanized 6E6: VH3-21*01 (extended) + VK1-12*01 (IMGT) (antibody, V domains shown, expressed as IgG) VH: EVQLVESGGGLVKPGGSLRLSCAASGFTFSNYGMSWVRQAPGKGLEWVSTISSGGGYTHYVDSVKGRFTISRDNAKNSLYLQMNSLRAEDTAVYYCARHPRDFSYAMDYWGQGTTVTVSS VL: DIQMTQSPSSVSASVGDRVTITCRASQDVGHYLAWYQQKPGKAPKLLIYWASSLQSGVPSRFSGSGSGTDFTLTISSLQPEDFATYYCQQYNIYPWTFGQGTKVEIK reads 9.28

Where do the numbers come from? From patent US20260209348A1.
